System: U2OS
experiment: Multiplex assay against U2OS
Assay type: toxicity, cell-based
assay-setup: human, 24 h, 10 µM, compound concentration 10 uM, replicate 1
Reported Population Mitotic Cells (%) values for a set of molecules
property-measured: Population Mitotic Cells (%)

| molecule | property-measured | observed |
| --- | --- | --- |
| O=C(NCCNCC(O)COc1ccc(O)cc1)N1CCOCC1.O=C(NCCNCC(O)COc1ccc(O)cc1)N1CCOCC1.O=C(O)/C=C/C(=O)O (stereo not drawn) [XAMOTEROL FUMARATE] | Population Mitotic Cells (%) | 10 |
| Cn1cc(C(=O)OCC2CCN(CCNS(C)(=O)=O)CC2)c2ccccc21 | Population Mitotic Cells (%) | 7 |
| Cc1cc(-c2ccc3c(c2)CC[C@H]3N2CC3(CCN(C(=O)Cc4cn5cc(C)sc5n4)CC3)C2)ncn1 [PF-5190457] | Population Mitotic Cells (%) | 32 |
| COc1ccc2[nH]c(I)c(CCNC(C)=O)c2c1 [IODOMELATONIN] | Population Mitotic Cells (%) | 4 |
| CCC(=O)OCC(=O)[C@@]1(OC(=O)CC)[C@@H](C)C[C@H]2[C@@H]3CCC4=CC(=O)C=C[C@]4(C)[C@@]3(Cl)[C@@H](O)C[C@@]21C [BECLOMETHASONE DIPROPIONATE] | Population Mitotic Cells (%) | 25 |
| COCCCN1CCC(NC(=O)c2cc(Cl)c(N)c3c2OCC3)CC1 [PRUCALOPRIDE] | Population Mitotic Cells (%) | 12 |
| CN1C[C@H](C(=O)N[C@]2(C)O[C@@]3(O)[C@@H]4CCCN4C(=O)[C@H](Cc4ccccc4)N3C2=O)C[C@@H]2c3cccc4[nH]cc(c34)C[C@H]21.CS(=O)(=O)O [DIHYDROERGOTAMINE MESYLATE] | Population Mitotic Cells (%) | 11 |
| Cc1ccc(OCC(O)C(C)NC(C)C)c2c1CCC2.Cl (stereo not drawn) | Population Mitotic Cells (%) | 17 |

###

Test system: HEK-293T
experiment: Multiplex assay against HEK293T
Type: toxicity, cell-based
assay-setup: human, 12 h, 10 µM, compound concentration 10 uM, replicate 1
Non-standard residues stand in square brackets, D forms with d. Residues, ends and D or L forms follow the SMILES beside them.
Reported Population Fragmented Nuclei (%) values for a set of molecules

| molecule | Population Fragmented Nuclei (%) |
| --- | --- |
| O=C(Nc1cc(-c2ccccc2)nn1-c1ccccc1F)c1ccc([N+](=O)[O-])cc1 | 10 |
| CC(C)C[C@@H]1NC(=O)[C@@H](C(C)C)NC(=O)[C@@H]2CCCN2C(=O)[C@@H](CC(=O)O)NC(=O)[C@@H](Cc2c[nH]c3ccccc23)NC1=O [BQ-123] (cyclo(L[dW][dD]P[dV])) | 7 |
| COc1cc(Nc2ncc3c(n2)-c2ccc(Cl)cc2C(c2c(F)cccc2OC)=NC3)ccc1C(=O)O | 8 |
| COc1c(Nc2ccc(S(C)(=O)=O)nc2C)ncnc1OC1CCN(C(=O)OC(C)C)CC1 | 7 |

###

Test system: HEK-293T
experiment: Multiplex assay against HEK293T
Assay type: toxicity, cell-based
assay-setup: human, 12 h, 1 µM, compound concentration 1 uM, replicate 2
Population Apoptotic (%) under 40% gets 1.0, anything at or over 40% gets 0.0.

| compound | class-label |
| --- | --- |
| CC(F)(F)CN1CCOc2c(nn(-c3ccccc3Cl)c2-c2ccc(Cl)cc2)C1=O | 0.0 |
| CCc1nn2c(C)cc(C)nc2c1Cc1ccc(-c2nnc(C3CCNCC3)o2)cc1 | 0.0 |
| COCCCN1CCC(NC(=O)c2cc(Cl)c(N)c3c2OCC3)CC1 [PRUCALOPRIDE] | 1.0 |
| Cl.Cl.OCCOCCN1CCN(C(c2ccccc2)c2ccc(Cl)cc2)CC1 (stereo not drawn) [HYDROXYZINE HYDROCHLORIDE] | 0.0 |
| CCCCC[C@H](O)/C=C/[C@H]1[C@H](O)CC(=O)[C@@H]1CCCCCCC(=O)O | 0.0 |
| S=C(NCCCc1c[nH]cn1)NCCCN(Cc1ccc(Cl)c(Cl)c1)c1ccc(Br)cn1 | 0.0 |
